Data credit: patent US20040241706A1

biological target: mutant Ras (19A-116A) (Homo sapiens, UniProt P01112, L19A/N116A); test: Ras inhibitor / guanine nucleotide exchange assay with 3H-GDP, double mutant L19A-N116A; settings: mutant (19A-116A) Ras; FIG. 34; read-out: IC50 (concentration at which 50% inhibition of GTP binding is observed)
Sequence (P01112 whole entry L19A/N116A): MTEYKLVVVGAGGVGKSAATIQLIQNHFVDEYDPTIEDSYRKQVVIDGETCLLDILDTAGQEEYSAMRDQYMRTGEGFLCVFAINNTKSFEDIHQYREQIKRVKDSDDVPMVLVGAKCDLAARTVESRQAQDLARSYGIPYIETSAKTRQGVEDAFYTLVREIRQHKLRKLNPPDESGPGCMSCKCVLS
measured.parameter: pIC50
Lab note — pIC50 values are minus log10 of concentrations in M.

## Task pIC50 for Nc1nc2c(c(CCc3ccccc3)cn2[C@@H]2O[C@H](COP(=O)(O)OP(=O)(O)O)[C@@H](O)[C@H]2O)c(=O)[nH]1 [Compound 60] ?
## Result 6.52
